Ki values recorded for human a-thrombin (Homo sapiens, UniProt P00734)
parameter: Ki (nM)

Solved cases below.
{"compound": "Cc1nc(N)ccc1CNC(=O)Cn1c(C)cc2c(c1=O)NC(=O)C(Cc1cccc(F)c1)C2 (centres unmarked)", "unit text": "nM", "Ki": 1.1}
{"compound": "Cc1nc(N)ccc1CNC(=O)Cn1c(C)cc2c(c1=O)NC(=O)C(Cc1cc(F)ccc1F)C2 (centres unmarked)", "unit text": "nM", "Ki": 0.64}

I: CC[C@H](C)CC1Cc2cc(C)n(CC(=O)NCc3ccc(N)nc3C)c(=O)c2NC1=O (some centres unmarked)
II: Cc1nc(N)ccc1CNC(=O)Cn1c(C)cc2c(c1=O)NC(=O)CC2
III: Cc1nc(N)ccc1CNC(=O)Cn1c(C)cc2c(c1=O)NC(=O)C(Cc1cc(F)cc(F)c1)C2 (centres unmarked)
// ranking: key=Ki, reverse=True I would appreciate it if you listed the labels in the requested order.
II, III, I
